# Tested on: KM12
# Assay Summary: NCI tumour cell line growth inhibition, 48 h
The source made the active and inactive calls. Rule as the data show it: active = GI50 up to about 1.1 µM and inactive = higher.
// one of yes (1) = active, no (0) = inactive, no free text

Previously resolved entries follow.
| Compound | Target | Category |
| --- | --- | --- |
| O=c1[nH]ccc(CNC23CC4CC(CC(C4)C2)C3)c1O | KM12 | no (0) |
| O=C1N=C(S)NNC12c1ccccc1-c1ccccc12 | KM12 | no (0) |
| O=C(NCCc1n[nH]c2c1C(=O)C=C(Nc1ccccc1)C2=O)OCc1ccccc1 | KM12 | no (0) |
| Cn1c2ccc([N+](=O)[O-])cc2c(=O)n1Cc1ccccc1F | KM12 | no (0) |
| CCc1nc(N)nc(N)c1-c1ccc(Cl)c(N=[N+]=[N-])c1 | KM12 | no (0) |

Challenge: Write down the call the test reported for this compound. Item: O=C(c1c(F)c(F)c(F)c(F)c1F)c1c(F)c(F)c(F)c(F)c1F
Response given: yes (1)

Challenge: Please do the same for O=C1CSC(c2cc3cc(Br)ccc3nc2Cl)N1c1ccc(Cl)cc1 (configuration not stated) as well.
Response given: no (0)

Challenge: Next record, please: COc1c(O)c2ccccc2c2cc(O)ccc12
Response given: no (0)

Challenge: Again, but for C=C1CC(COc2ccc3c(C)c(C)c(=O)oc3c2C)(c2ccccc2)OC1=O (configuration not stated)
Response given: no (0)

Challenge: Another compound to check: CN(C)c1nc2oc(-c3ccccc3)c(-c3ccccc3)c2c2nnnn12
Response given: no (0)

Challenge: Same for O=c1nc(NC(c2ccccc2)(c2ccccc2)c2ccccc2)ccn1CCCl
Response given: no (0)

Challenge: Could you do the same for COc1ccc(Br)c(N/N=C2\CCCNC2=O)c1 , please?
Response given: no (0)

====

# Tested on: SW-620
# Assay Summary: NCI tumour cell line growth inhibition, 48 h
Active and inactive are the calls of the source. Rule as the data show it: active = GI50 up to about 1.1 µM and inactive = higher.
Readout Kind: GI50

// solved cases for GI50 follow
| Compound | GI50 |
| --- | --- |
| Cn1c2ccccc2c2ccc3c(c21)C(=O)c1ccccc1C3=O | 28.2 µM (inactive) |
| CC[P+](c1ccccc1)(N(C)C)N(C)C | > 100 µM (inactive) |
| CC(=O)NNc1nc(C)c(C(/C=C/c2ccc([N+](=O)[O-])cc2)=N/N)s1 | > 100 µM (inactive) |
| CC(=O)OCCOCNC(=S)N/N=C(\C)c1cnccn1 | 23.9 µM (inactive) |
| O=C(NCCCl)SCCO | > 100 µM (inactive) |

Challenge: May I ask what GI50 has been recorded for CCOC(=O)c1ccc2nc(NC(=O)COC(=O)CSc3nc(C)cc(C)n3)sc2c1 ?
Response given: > 100 µM (inactive)

Challenge: Moving on to the next compound: COC(=O)C1=C(OC(=O)/C(=C/c2ccccc2)c2ccc(Cl)cc2)C(C(=O)OC)[C@@]2(O)[C@@H](C(=O)OC)[C@H](C)C[C@@H]1[C@@H]2C(=O)OC (stereo partly specified)
Response given: > 100 µM (inactive)

Challenge: Continue with O=[N+]([O-])c1ccc(N2N=C(c3ccc(NCc4nc5ccccc5[nH]4)cc3)CC2c2ccco2)cc1 (stereo unspecified)
Response given: 34.7 µM (inactive)

Challenge: Please answer likewise for COc1cc2c(ccc3c4cc(OC)c(OC)cc4c[n+](C)c23)cc1O
Response given: 12.7 µM (inactive)

Challenge: Okay, and O=C1/C(=C/C=C/c2ccccc2)CCC1CNc1ccc(Br)cc1 (stereo unspecified) ?
Response given: 88.7 µM (inactive)

Challenge: Please do the same for CCOC(=O)C1=C(NC(C)(C)C)OCC1=O as well.
Response given: > 100 µM (inactive)

Challenge: Entry CC12CCC(=O)N1c1cc([N+](=O)[O-])ccc1N2 (stereo unspecified) please
Response given: > 100 µM (inactive)

Challenge: Follow-up entry: N#C/C(=C\c1cc(O)cc(O)c1)C(N)=O
Response given: > 100 µM (inactive)

Challenge: Quick one: c1ccc([P+](CCN2Cc3ccccc3C2)(c2ccccc2)c2ccccc2)cc1
Response given: 4.22 µM (inactive)

Challenge: Same lookup for Cc1c(C=C(C#N)C#N)c(=O)n(C)c(=O)n1C , please.
Response given: > 100 µM (inactive)

Challenge: Likewise for O=c1cc(-c2ccccc2)oc2cc(OCC(O)COc3ccc4c(=O)cc(-c5ccccc5)oc4c3)ccc12 ?
Response given: 61.2 µM (inactive)

Challenge: Now the same for CC(=O)c1c2c(cc3c1CC1(Cc4cc5c(cc4C1)C(=O)CCC5)C3)CCCC2 (stereo unspecified)
Response given: 5.25 µM (inactive)

Challenge: Try this compound next: O=C(Nn1c(-c2ccccc2)nc2ccccc2c1=O)c1ccc(CS)cc1
Response given: 31.1 µM (inactive)

Challenge: Query O=C(CCCl)NN=C1NCCN1 next
Response given: > 100 µM (inactive)

Challenge: Same read-out for O=C1CSC(c2cc3cc(Br)ccc3nc2Cl)N1c1ccc(Cl)cc1 (stereo unspecified) ?
Response given: 34.3 µM (inactive)

Challenge: And CC1=C[C@H]([C@H]2C=C(C)C(C(N)=O)=CN2Cc2c(Cl)cccc2Cl)N(Cc2c(Cl)cccc2Cl)C=C1C(N)=O ?
Response given: > 75 µM (inactive)

====

# System: A498
# Assay Summary: NCI tumour cell line growth inhibition, 48 h
Active and inactive are the calls of the source. Rule as the data show it: active = GI50 up to about 1.1 µM and inactive = higher.
Write down one outcome, taken from active, inactive

Challenge: Please share the test call associated with CCC(=O)Nc1ccc(/N=N/N(C)C)cc1 .
Response given: inactive

Challenge: Follow-up entry: COc1ccc2c(c1)/C(=C\c1c(Cl)nc3sc(C)cn13)C(=O)N2
Response given: inactive

Challenge: Repeat for the following compound: C=CCCN1CCc2c([nH]c3ccccc23)C1C(=O)O (centres undefined)
Response given: inactive

Challenge: Next: OC[C@H]1C[C@@H]2Cc3ccccc3N2N1
Response given: inactive

Challenge: What do you have for CN1CCC23c4c5ccc(O)c4OC2c2[nH]c4ccccc4c2CC3(O)C1C5 (centres undefined) ?
Response given: inactive

Challenge: Similarly, COc1ccc(/N=C(C)/C(C)=N/c2ccc(OC)cc2)cc1 ?
Response given: inactive

Challenge: Next compound: COC1C(O)C(C)OC(OC2C(Oc3cccc4c(O)c5c(=O)oc6ccc(C)c7c(=O)oc(c34)c5c67)OC(C)C3O[C@H](c4ccccc4)OC32)C1O (some centres undefined)
Response given: active

Challenge: Consider next the compound O=C(OC1CC(n2cc(F)c(=O)[nH]c2=O)OC1CSC(=O)c1ccccc1)c1ccccc1 (centres undefined) in the same way.
Response given: inactive

Challenge: Do the same for C=C1CC2(CCS(=O)(=O)c3ccccc32)OC1=O (centres undefined) please
Response given: inactive

Challenge: Next: Cc1c(C(=O)CSc2nc3ccccc3c(=O)n2-c2ccccc2)c(=O)n(-c2ccccc2)n1C
Response given: inactive

Challenge: What about this compound? CN1C[C@@H]2CC(=O)CC[C@@H]2C[C@H]1C#N
Response given: inactive

Challenge: Lookup CN(C)C(=S)/N=c1\ssc(=S)n1Cc1cccnc1
Response given: inactive

Challenge: Field entry: CC(=O)C1=C(C)O[C@@H]2O[C@H](COCc3ccccc3)[C@@H](OCc3ccccc3)[C@H](O)[C@@H]2S1
Response given: inactive

Challenge: Same thing, different compound: CC1=C2CCCC2C/C(=N/Nc2ccc([N+](=O)[O-])cc2[N+](=O)[O-])CC1 (centres undefined)
Response given: inactive

Challenge: Input COC(=O)[C@@]1(NC(=O)C(CC(=O)OC(C)(C)C)NC(=O)OC(C)(C)C)C[C@H]1C (some centres undefined)
Response given: inactive

Challenge: // same read-out, input: CN(C)C(=O)NCCN1CCCCCc2ccccc21
Response given: inactive

Challenge: Then what about the compound CCOC(=O)NN(C(=O)OCC)c1ccc(/N=N/c2ccc(OC)cc2)n1C ?
Response given: inactive

Challenge: Another compound to look at: CC1=CC[C@H](C(C)C)C(C(O)[C@@H](C)O[Si](c2ccccc2)(c2ccccc2)C(C)(C)C)C1=O (some centres undefined)
Response given: inactive

====

Parameter: GI50. Scope: all listed entries.
# Test system: 786-0
# Assay Summary: NCI tumour cell line growth inhibition, 48 h
Calls of active or inactive are those of the source. Rule as the data show it: active = GI50 up to about 1.1 µM and inactive = higher.

Previously resolved entries follow.
| Molecule | GI50 |
| --- | --- |
| COc1cc(/C=C/c2ccc(/C=C/c3cc(OC)c(OC)c(OC)c3)cc2)cc(OC)c1OC | 7.94 µM (inactive) |
| c1ccc([P+](CCN2Cc3ccccc3C2)(c2ccccc2)c2ccccc2)cc1 | 8.17 µM (inactive) |
| CCCCC/N=C/c1c(O)c(O)c(C(C)C)c2cc(C)c(-c3c(C)cc4c(C(C)C)c(O)c(O)c(/C=N/CCCCC)c4c3O)c(O)c12 | 11.8 µM (inactive) |
| O=c1c2cc([N+](=O)[O-])ccc2[nH]n1Cc1ccccc1Cl | 64.9 µM (inactive) |

Challenge: Using the record for COc1cc(C(=O)OC2CC(C)=CC[C@@]3(C)CC[C@](O)(C(C)C)C23)ccc1O (stereo not given in full) , report its GI50.
Response given: 17.3 µM (inactive)
